- Assay System: IMPDH1(595)-Y12A (Homo sapiens, UniProt P20839, Y12A)
- Sequence (P20839 1-509 Y12A): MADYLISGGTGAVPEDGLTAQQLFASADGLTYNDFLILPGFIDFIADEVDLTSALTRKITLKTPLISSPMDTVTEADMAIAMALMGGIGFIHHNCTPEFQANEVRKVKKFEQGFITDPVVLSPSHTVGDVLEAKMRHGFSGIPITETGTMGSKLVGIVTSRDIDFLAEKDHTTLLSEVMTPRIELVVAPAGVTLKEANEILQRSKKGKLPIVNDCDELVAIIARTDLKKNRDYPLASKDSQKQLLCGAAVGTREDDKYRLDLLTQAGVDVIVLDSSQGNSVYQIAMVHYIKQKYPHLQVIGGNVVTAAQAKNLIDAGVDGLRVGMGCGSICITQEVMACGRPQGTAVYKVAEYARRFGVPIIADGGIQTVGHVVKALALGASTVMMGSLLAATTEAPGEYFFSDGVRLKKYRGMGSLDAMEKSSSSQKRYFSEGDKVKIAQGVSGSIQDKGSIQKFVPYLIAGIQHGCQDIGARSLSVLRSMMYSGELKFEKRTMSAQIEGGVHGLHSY
- Assay Info: IMPDH1 activity assay, GTP inhibition
pIC50: −log10 of the molar value.
Observed Property: pIC50

molecule="Nc1nc2c(ncn2[C@@H]2O[C@H](COP(=O)(O)OP(=O)(O)OP(=O)(O)O)[C@@H](O)[C@H]2O)c(=O)[nH]1 [GTP, guanosine triphosphate]" numeric_value=3.33

====

- Assay System: IMPDH1(595)-WT (Homo sapiens)
- Sequence (P20839 1-558 isoform P20839-3 limits assumed): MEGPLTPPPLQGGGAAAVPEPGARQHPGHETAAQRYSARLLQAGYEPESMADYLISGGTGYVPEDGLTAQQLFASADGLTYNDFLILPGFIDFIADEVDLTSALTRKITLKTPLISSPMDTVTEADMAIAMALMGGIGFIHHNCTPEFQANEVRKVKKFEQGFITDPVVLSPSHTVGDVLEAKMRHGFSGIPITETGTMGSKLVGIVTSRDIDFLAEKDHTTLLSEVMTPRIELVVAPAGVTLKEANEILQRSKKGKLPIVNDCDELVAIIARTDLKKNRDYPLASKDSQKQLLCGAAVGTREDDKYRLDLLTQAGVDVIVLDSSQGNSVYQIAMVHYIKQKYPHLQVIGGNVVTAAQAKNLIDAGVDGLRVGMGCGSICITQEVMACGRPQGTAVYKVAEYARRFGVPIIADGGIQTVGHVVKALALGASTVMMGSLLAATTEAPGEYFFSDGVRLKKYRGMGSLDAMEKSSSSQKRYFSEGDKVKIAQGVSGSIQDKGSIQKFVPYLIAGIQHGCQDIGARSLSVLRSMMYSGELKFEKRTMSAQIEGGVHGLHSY
pIC50: −log10 of the molar value.
Observed Property: pIC50

compound="Nc1nc2c(ncn2[C@@H]2O[C@H](COP(=O)(O)OP(=O)(O)OP(=O)(O)O)[C@@H](O)[C@H]2O)c(=O)[nH]1 [GTP, guanosine triphosphate]" observed_property=pIC50 numeric_value=2.94
